# credit: paper PMC6736635

# targetEntity: PRC2-AEBP2 (Homo sapiens, UniProt Q15910;Q15022;O75530;Q09028;Q6ZN18 1-746;1-739;1-441;1-425;1-517)
# experimentalDetails: fluorescence anisotropy
propertyName: pKd
Just the number, please; pKd means minus log10 of the concentration in mol/L.

Supply measured pKd of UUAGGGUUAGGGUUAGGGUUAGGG (structured_RNA) [G4 24 RNA] in your reply.
7.72
